target: DNA topoisomerase 2-alpha (Homo sapiens); test: Inhibition of human topoisomerase 2 alpha-mediated bacterial plasmid DNA relaxation assessed as pRYG negative supercoiled form at 100 uM
Calls of active or inactive are those of the source. No cut-off for these calls is given here.
Use one of these outcomes when replying: active, inactive

Below are worked cases with known answers.
1. C[C@H]1CC[C@H]2[C@H](C1)C1=C(OC2(C)C)c2ccccc2C(=O)C1=O ... inactive
2. CC1(C)OC2=C(C(=O)c3ccccc3C2=O)[C@H]2c3c(ccc4ccccc34)OC[C@H]21 ... inactive
3. C[C@@H]1CC[C@H]2[C@H]1C1=C(OC2(C)C)C(=O)c2ccccc2C1=O ... inactive
4. CC1(C)OC2=C(C(=O)C(=O)c3ccccc32)[C@@H]2c3c(ccc4ccccc34)OC[C@@H]21 ... active
5. C[C@@H]1CC[C@@H]2[C@@H](C1)C1=C(OC2(C)C)C(=O)c2ccccc2C1=O ... inactive

Test call, this compound: `COc1ccc2c(c1)OC[C@H]1[C@@H]2C2=C(OC1(C)C)c1ccccc1C(=O)C2=O` active

Also `C[C@H]1CC[C@@H]2[C@@H]1C1=C(OC2(C)C)c2ccccc2C(=O)C1=O` ? inactive

Also `Cc1c2ccncc2c(C)c2c1[nH]c1ccccc12` ? active

Also `CC1(C)OC2=C(C(=O)c3ccccc3C2=O)[C@H]2c3cc(Br)cc(Br)c3OC[C@H]21` ? active
